- System: MDA-MB-231 R, MDA-MB-231 S, 4T1 S1, R4, and R8 cells
- ASSAY_OVERVIEW: Cell viability of indicated cell lines, DHTP or 7S9 for 72 hr
- Format: cell-based
- CONDITIONS_USED: Homo sapiens, range over MDA-MB-231 R, read-out: cytotoxicity IC50 values
OBSERVABLE: IC50

Please report the recorded IC50 for CCN1CCN(C(=O)COc2ccc(/C=c3\sc4n(c3=O)C(c3ccc(Cl)cc3)C(C(=O)OC(C)C)=C(C)N=4)cc2)CC1.O=C(O)/C=C\C(=O)O (stereo not shown) [7S9 (133), maleate] .
4.9 to 8.6 µM

Data credit: patent US20250129101A1
